test: In vitro PBMC loading rate; format: in vitro ADME; settings: human
recorded metric: In vitro PBMC Loading Rate (nM/h)
Record the value in nM/h, omitting the unit from your answer.

Endpoint output: In vitro PBMC Loading Rate of CCOC(=O)[C@H](C)OP(=O)(CCN1CCN(C(=O)c2c3c(c(O)c4ncccc24)C(=O)N(Cc2ccc(F)cc2)C3)CC1)Oc1ccccc1 (stereo partly drawn) . Value?
4810

Now consider CCOC(=O)[C@H](C)OP(=O)(CCN1CCN(C(=O)Oc2c3c(c(O)c4ncccc24)C(=O)N(Cc2ccc(F)cc2)C3)CC1)Oc1ccccc1 (stereo partly drawn) and answer again.
5291

Same question, CCOC(=O)C(C)NP(=O)(CCN(C)C(=O)c1c2c(c(O)c3ncccc13)C(=O)N(Cc1ccc(F)cc1)C2)Oc1ccccc1 (stereo not drawn) this time
19551

Cool, now CCOC(=O)[C@H](C)NP(=O)(CCNC(=O)c1c2c(c(O)c3ncccc13)C(=O)N(Cc1ccc(F)cc1)C2)Oc1ccccc1 (stereo partly drawn)
7830

Now consider CCOC(=O)[C@H](C)NP(=O)(CCCN(C)C(=O)c1c2c(c(O)c3ncccc13)C(=O)N(Cc1ccc(F)cc1)C2)Oc1ccccc1 (stereo partly drawn) .
4831

Try this molecule too: CCOC(=O)[C@H](C)NP(=O)(CO[C@H](C)CNC(=O)c1c2c(c(O)c3ncccc13)C(=O)N(Cc1ccc(F)cc1)C2)Oc1ccccc1 (stereo partly drawn)
5774

----------
assay: Phosphonate prodrugs in vivo summary (pharmacokinetics); details: species not given
Please mark Fulfilled if the recorded F is equal to or greater than 0.5%, and Not fulfilled if it falls below.

Has CCOC(=O)[C@H](C)OP(=O)(CCN1CCN(C(=O)Oc2c3c(c(O)c4ncccc24)C(=O)N(Cc2ccc(F)cc2)C3)CC1)Oc1ccccc1 (stereo partly shown) a recorded F greater than or equal to 0.5%?
Fulfilled

Okay, and CCOC(=O)[C@H](C)NP(=O)(CCCN(C)C(=O)c1c2c(c(O)c3ncccc13)C(=O)N(Cc1ccc(F)cc1)C2)Oc1ccccc1 (stereo partly shown) ?
Not fulfilled

Same for CCOC(=O)[C@H](C)OP(=O)(CCNC(=O)c1c2c(c(O)c3ncccc13)C(=O)N(Cc1ccc(F)cc1)C2)Oc1ccccc1 (stereo partly shown)
Not fulfilled

And what about the compound CCOC(=O)[C@H](C)NP(=O)(CCN(C)C(=O)c1c2c(c(O)c3ncccc13)C(=O)N(Cc1ccc(F)cc1)C2)OCC(F)(F)F (stereo partly shown) ?
Fulfilled

Could you do the same for CCOC(=O)[C@H](C)OP(=O)(CCN1CCN(C(=O)c2c3c(c(O)c4ncccc24)C(=O)N(Cc2ccc(F)cc2)C3)CC1)Oc1ccccc1 (stereo partly shown) , please?
Not fulfilled

----------
test: Cytotoxicity in MT4 cells; conditions: human
Would you mind telling me the reported CC50 of each entry?

Which CC50 is listed for CCOC(=O)[C@H](C)OP(=O)(CCN1CCN(C(=O)Oc2c3c(c(O)c4ncccc24)C(=O)N(Cc2ccc(F)cc2)C3)CC1)Oc1ccccc1 (stereo partly drawn) [Compound 2005] ?
< 5 µM

Queued: CCOP(=O)(CN1CCN(C(=O)Oc2c3c(c(O)c4ncccc24)C(=O)N(Cc2ccc(F)cc2)C3)CC1)OCC [Compound 2003]
< 5 µM

Also need COP(=O)(CCN1CCN(C(=O)Oc2c3c(c(O)c4ncccc24)C(=O)N(Cc2ccc(F)cc2)C3)CC1)OC [Compound 2004] , thanks.
< 5 µM

----------
assay: Phosphonate prodrugs in vivo summary (pharmacokinetics); settings: species not given
Would you mind telling me the reported Vdβ of each entry?
Report the figure in L/kg without appending any unit label.

Recorded Vdβ of CCOC(=O)[C@H](C)OP(=O)(CCN1CCN(C(=O)Oc2c3c(c(O)c4ncccc24)C(=O)N(Cc2ccc(F)cc2)C3)CC1)Oc1ccccc1 (some centres unmarked) , please.
10.8

Another compound to check: CCOC(=O)[C@H](C)OP(=O)(CCNC(=O)c1c2c(c(O)c3ncccc13)C(=O)N(Cc1ccc(F)cc1)C2)Oc1ccccc1 (some centres unmarked)
1.1

Similarly, CCOC(=O)[C@H](C)NP(=O)(CCNC(=O)c1c2c(c(O)c3ncccc13)C(=O)N(Cc1ccc(F)cc1)C2)N[C@@H](C)C(=O)OCC ?
4

----------
I'd appreciate it if you could supply clearance values for the items below.
test: Pharmacokinetics in dog; type: in vivo; conditions: in vivo, read-out: Cl Dog (converted)
Write the quantity with the unit trailing the number.

clearance lookup needed for O=C(NCc1ccccn1)c1c2c(c(O)c3ncccc13)C(=O)N(Cc1ccc(F)cc1)C2 , thanks.
0.07 L/h/kg

And then O=C(NCc1ccc(F)cc1)c1nc(N2CCCCS2(=O)=O)c2cccnc2c1O [Compound L-870810, reference compound] , what is it?
0.07 L/h/kg

----------
Give half-life for every item shown.
assay: Hepatocyte stability, dog; conditions: hepatocytes
Give the quantity in min, number only.

Tell me the measured half-life of CCOC(=O)[C@H](C)NP(=O)(CCCN(C)C(=O)c1c2c(c(O)c3ncccc13)C(=O)N(Cc1ccc(F)cc1)C2)Oc1ccccc1 (some centres unmarked) [Compound 2012] , please.
46

Record: CCOC(=O)[C@H](C)OP(=O)(CCN1CCN(C(=O)c2c3c(c(O)c4ncccc24)C(=O)N(Cc2ccc(F)cc2)C3)CC1)Oc1ccccc1 (some centres unmarked) [Compound 2011]
44

What about CCOC(=O)[C@H](C)NP(=O)(CCNC(=O)c1c2c(c(O)c3ncccc13)C(=O)N(Cc1ccc(F)cc1)C2)N[C@@H](C)C(=O)OCC [Compound 2007] ?
194

Also CCOC(=O)[C@H](C)NP(=O)(CCNC(=O)c1c2c(c(O)c3ncccc13)C(=O)N(Cc1ccc(F)cc1)C2)Oc1ccccc1 (some centres unmarked) [Compound 2006] ?
104

Same for CCOC(=O)[C@H](C)NP(=O)(CO[C@H](C)CNC(=O)c1c2c(c(O)c3ncccc13)C(=O)N(Cc1ccc(F)cc1)C2)Oc1ccccc1 (some centres unmarked) [Compound 2013]
53

Another molecule to check: CCOC(=O)[C@H](C)NP(=O)(CCN(C)C(=O)c1c2c(c(O)c3ncccc13)C(=O)N(Cc1ccc(F)cc1)C2)OCC(F)(F)F (some centres unmarked) [Compound 2009]
73

Can you handle CCOC(=O)C(C)NP(=O)(CCN(C)C(=O)c1c2c(c(O)c3ncccc13)C(=O)N(Cc1ccc(F)cc1)C2)Oc1ccccc1 (centres unmarked) [Compound 2008] next?
44

Then what about the molecule CCOC(=O)[C@H](C)OP(=O)(CCN1CCN(C(=O)Oc2c3c(c(O)c4ncccc24)C(=O)N(Cc2ccc(F)cc2)C3)CC1)Oc1ccccc1 (some centres unmarked) [Compound 2005] ?
64

----------
target: Strand Transfer (Human immunodeficiency virus type 1 group M subtype B); assay: Integrase strand transfer inhibition; type: biochemical, HIV; conditions: read-out: IC50 Strand Transfer
pIC50: −log10 of the molar value.
recorded metric: pIC50

Please state recorded pIC50 (tested on Strand Transfer (Human immunodeficiency virus type 1 group M subtype B)) of CCOP(=O)(CNC(=O)CCSC1c2c(c(O)c3ncccc3c2OC)C(=O)N1Cc1ccc(F)cc1)OCC (centres unmarked)
> 5.92

Next up: CCOP(=O)(COc1c2c(c(O)c3ncccc13)C(=O)N(Cc1ccc(F)cc1)C2)OCC
> 6.22

----------
system: HIV; assay: Antiviral activity in MT-2 cells; assay type: cell-based
recorded metric: EC50 (nM)
Form entry: value (nM) — number only.

// lookup EC50 for CCOC(=O)[C@H](C)NP(=O)(CCN(C)C(=O)c1c2c(c(O)c3ncccc13)C(=O)N(Cc1ccc(F)cc1)C2)OCC(F)(F)F (some centres unmarked) [Compound 2017]
1

Item: CCOC(=O)[C@H](C)NP(=O)(CCN(C)C(=O)c1c2c(c(O)c3ncccc13)C(=O)N(Cc1ccc(F)cc1)C2)OCC(F)(F)F (some centres unmarked) [Compound 2018]
0.1

----------
Answer each item with its documented half-life.
experiment: Hepatocyte stability, human; details: hepatocytes
// return numeric value only (unit: h, not printed)

Which half-life is reported for this compound? CCOC(=O)[C@H](C)NP(=O)(CCNC(=O)c1c2c(c(O)c3ncccc13)C(=O)N(Cc1ccc(F)cc1)C2)N[C@@H](C)C(=O)OCC
2.65

And CCOC(=O)[C@H](C)NP(=O)(CCCN(C)C(=O)c1c2c(c(O)c3ncccc13)C(=O)N(Cc1ccc(F)cc1)C2)Oc1ccccc1 (stereo partly shown) ?
2.57

# iterate: CCOC(=O)[C@H](C)OP(=O)(CCN1CCN(C(=O)c2c3c(c(O)c4ncccc24)C(=O)N(Cc2ccc(F)cc2)C3)CC1)Oc1ccccc1 (stereo partly shown)
1.4

Similarly, CCOC(=O)[C@H](C)NP(=O)(CCNC(=O)c1c2c(c(O)c3ncccc13)C(=O)N(Cc1ccc(F)cc1)C2)Oc1ccccc1 (stereo partly shown) ?
1.63

Follow-up entry: CCOC(=O)[C@H](C)OP(=O)(CCN1CCN(C(=O)Oc2c3c(c(O)c4ncccc24)C(=O)N(Cc2ccc(F)cc2)C3)CC1)Oc1ccccc1 (stereo partly shown)
1.65

Same again, this time with CCOC(=O)[C@H](C)NP(=O)(CO[C@H](C)CNC(=O)c1c2c(c(O)c3ncccc13)C(=O)N(Cc1ccc(F)cc1)C2)Oc1ccccc1 (stereo partly shown)
1.33

Also need CCOC(=O)C(C)NP(=O)(CCN(C)C(=O)c1c2c(c(O)c3ncccc13)C(=O)N(Cc1ccc(F)cc1)C2)Oc1ccccc1 (stereo not shown) , thanks.
1.95
